# test_target: UniProt P27028
# Sequence (P27028 21-705 limits assumed): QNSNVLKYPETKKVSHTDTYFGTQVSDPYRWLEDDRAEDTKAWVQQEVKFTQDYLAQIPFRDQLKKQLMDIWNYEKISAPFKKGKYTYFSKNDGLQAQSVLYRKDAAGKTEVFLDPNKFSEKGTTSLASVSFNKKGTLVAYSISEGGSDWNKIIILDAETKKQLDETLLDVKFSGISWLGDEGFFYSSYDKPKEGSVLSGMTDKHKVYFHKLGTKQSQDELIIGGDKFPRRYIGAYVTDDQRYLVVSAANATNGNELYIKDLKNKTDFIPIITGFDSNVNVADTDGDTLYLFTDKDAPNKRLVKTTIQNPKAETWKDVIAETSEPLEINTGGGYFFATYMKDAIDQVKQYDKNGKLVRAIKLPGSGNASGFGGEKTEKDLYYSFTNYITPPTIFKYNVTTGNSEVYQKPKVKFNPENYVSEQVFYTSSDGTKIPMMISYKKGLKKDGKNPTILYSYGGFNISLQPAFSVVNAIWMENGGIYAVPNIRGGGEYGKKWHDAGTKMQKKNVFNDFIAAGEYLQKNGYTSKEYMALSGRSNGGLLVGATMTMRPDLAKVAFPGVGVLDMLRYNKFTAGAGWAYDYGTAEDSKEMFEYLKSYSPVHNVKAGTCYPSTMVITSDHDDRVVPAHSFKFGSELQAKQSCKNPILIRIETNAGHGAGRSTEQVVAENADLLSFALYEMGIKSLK
value_kind: IC50 (µM)

chemical_smiles: CC(=O)OC[C@@]12[C@H](OC(C)=O)[C@H]3[C@@H](OC(C)=O)[C@@H](C)C[C@]3(O)C(=O)[C@@]3(C)OC(C)(C)[C@@H](C=C[C@H]1OC(=O)c1ccccc1)[C@H]23
value_kind: IC50
number: 16.9
